read-out: Tumor necrosis factor (Homo sapiens); assay: BSK_LPS_TNFa: BioMAP Diversity Plus: LPS Assay for Tumour Necrosis Factor alpha (TNFa) Biomarker Activity (AID 2283085); details: primary human HUVEC with PBMC; actives raise or lower the signal
Active and inactive are the calls of the source. How the source made its calls: active means hit-call score of the fitted dose curve at least 0.9, where 1 is the maximum; inactive means score below 0.9.
# valid calls are y = active, n = inactive; nothing else

// known answers, use as guide
MOL	CLASSIFICATION
COc1ccc2cc(S(=O)(=O)N[C@H](CC(=O)N[C@H](Cc3ccc(CN4[C@H](C)CCC[C@@H]4C)cc3)C(=O)N(C)C(C)C)c3ccc4c(c3)OCO4)ccc2c1	y
O=C(O)c1ccccc1C(=O)OCc1ccccc1	n
CCN(Cc1cccc(S(=O)(=O)O)c1)c1ccc(C(=C2C=CC(=[N+](CC)Cc3cccc(S(=O)(=O)O)c3)C=C2)c2ccccc2S(=O)(=O)[O-])cc1	n
CCN(Cc1cccnc1)C(=O)c1cccc(Cl)c1[C@]1(C)C(=O)N(Cc2ccc(OC)cc2OC)c2ccc(Cl)cc21	n
CCCCOC(=O)c1ccc(O)cc1	n
CCCCCCCCCC(=O)O	n
Oc1ccc2ccccc2c1	n
O=c1c(-c2ccc(O)cc2)coc2cc(O)cc(O)c12	y
CC[C@H](NC(=O)c1cc(F)ccc1NS(=O)(=O)c1cccc2cccnc12)c1ccccc1	n
Cc1cc(F)ccc1-c1cc(N2CC[C@@H](O)[C@H]2CO)ncc1N(C)C(=O)C(C)(C)c1cc(C(F)(F)F)cc(C(F)(F)F)c1	y

Hi team, can someone confirm the assay call for c1ccc2n[nH]nc2c1 ?
n

Test call for this compound, please: Cc1ccc2oc(CN(Cc3ccccc3)C(=O)Nc3c(F)cc(F)cc3F)c(-c3ccc(Cl)cc3)c2c1
n

Record lookup: outcome of this test for CC(=O)N1CCN(c2ccc(OC[C@H]3CO[C@](Cn4ccnc4)(c4ccc(Cl)cc4Cl)O3)cc2)CC1 ?
y

Test call for this compound, please: CCN(CC)C(=O)c1cc(S(=O)(=O)Cc2ccccc2)c(N2CCC(c3ccccc3)CC2)cc1N(CC)CCN(C)C
y

Hi, sorry to bother you, what did the test record for Cc1cccc2ccccc12 ?
n

====

read-out: Thrombomodulin, THBD (gene 7056); test: BSK_CASM3C_Thrombomodulin: BioMAP Diversity Plus: CASM3C Assay for Thrombomodulin Biomarker Activity (AID 2283051); conditions: primary human coronary artery smooth muscle cells; actives raise or lower the signal;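 further: thrombomodulin protein level measured by ELISA 24 h after dosing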
Calls of active or inactive are those of the source. How the source made its calls: active means hit-call score of the fitted dose curve at least 0.9, where 1 is the maximum; inactive means score below 0.9.
Pick one: YES for active, NO for inactive

See these solved cases before continuing.
COMPOUND	CLASSIFICATION
Cc1c2ccccc2c(C)c2c1ccc1ccccc12	YES
NCc1cccc(C2CCN(C(=O)c3ccc(C#Cc4ccccc4F)o3)CC2)c1	YES
CCCCCCCCOc1ccc(C(=O)c2ccccc2)c(O)c1	NO
Clc1ccccc1C(c1ccccc1)(c1ccccc1)n1ccnc1	YES

Kindly provide the recorded test outcome for the following compound: O=C(O)Cc1cc(I)c(Oc2ccc(O)c(I)c2)c(I)c1
NO

Dear colleague, could you share the recorded outcome for CCCCCCCCOC(=O)c1cc(O)c(O)c(O)c1 when you have a moment?
YES

Would you mind telling me which call this test gave Cc1ccc(C(C)C)cc1 ?
NO

====

read-out: BCL2L11 (gene 10018); test: LTEA_HepaRG_BCL2L11: Life Technologies and Expression Analysis (LTEA) Assay for Bcl-2 (BCL2L11) gene using HepaRG (AID 2283473); conditions: mRNA level, 48 h; actives raise or lower the signal
Active and inactive are the calls of the source. The calls were made as follows: active = hit-call score of the fitted dose curve at least 0.9, where 1 is the maximum; inactive = score below 0.9.
A correct response names exactly one class from active, inactive

MOL	CLASSIFICATION
CCCCCCCC[Si](OCC)(OCC)OCC	inactive

Short answer needed: outcome of this test for CC[C@@H]1C[C@H](N(Cc2cc(C(F)(F)F)cc(C(F)(F)F)c2)C(C)=O)c2cc(C(F)(F)F)ccc2N1C(=O)OC(C)C ?
inactive

Field: outcome | Entry: O=c1[nH]sc2ccccc12
inactive

Identify the outcome logged in this assay for the compound shown: CCCCCCCCCCCO
inactive

Hi, sorry to bother you, what did the test record for Clc1cc(Cl)c2c(c1)N=C1CCCCCN1C2 ?
inactive

Hey, what did the test say about COc1ccc2cc(S(=O)(=O)N[C@H](CC(=O)N[C@H](Cc3ccc(CN4[C@H](C)CCC[C@@H]4C)cc3)C(=O)N(C)C(C)C)c3ccc4c(c3)OCO4)ccc2c1 ?
active

Assay outcome for CC(C)(O)c1ccc(CNC(=O)c2cccnc2Oc2ccc3nonc3c2)cc1 : what was it?
inactive

Dear all, I need the recorded test outcome for CCCCCCCCOc1ccc(C(=O)c2ccccc2)c(O)c1 , thank you.
inactive

Hi, sorry to bother you, what did the test record for CN(C)C(=O)C1(N2CCCCC2)CCN(CC[C@@]2(c3ccc(Cl)c(Cl)c3)CN(C(=O)c3ccccc3)CCO2)CC1 ?
active

Assay outcome for c1ccc2n[nH]nc2c1 : what was it?
inactive

What call does the record list for O=C(O)c1ccccc1-n1cc(C(=O)O)c(=O)c2cc(Nc3c(F)cc(F)cc3Cl)c(Cl)cc21 ?
inactive
